Data origin, for the record: ChEMBL document CHEMBL4229434

ASSAY_TARGET: Peroxisome proliferator-activated receptor gamma (Homo sapiens)
EXPERIMENT_SUMMARY: Agonist activity at PPARgamma in human HepG2 cells assessed as activation of PPRE at 10 ug/ml incubated for 24 hrs by dual luciferase reporter gene assay relative to control
Assay type: cell-based
EXPERIMENTAL_READOUT: Activity (%)

| CHEMICAL_STRING | Activity / % |
| --- | --- |
| O=C(CCl)Nc1cccc([C@H](NC(=O)OCc2ccccc2)C(=O)O)c1 | 53.5 |

[A] COC(=O)[C@@H](NC(=O)OCc1ccccc1)c1cccc(NC(=O)Cn2cnc3ccccc32)c1
[B] CC(C)(C)OC(=O)N1CCN(CC(=O)Nc2cccc([C@H](NC(=O)OCc3ccccc3)C(=O)O)c2)CC1
Select one: A or B . Criterion: greater recorded Activity. Respond with the label that goes with your answer.
B

[A] O=C(CCl)Nc1cccc([C@H](NC(=O)OCc2ccccc2)C(=O)NO)c1
[B] CCCOC(=O)[C@@H](NC(=O)OCc1ccccc1)c1cccc(NC(=O)CCl)c1
[C] COC(=O)[C@@H](NC(=O)OCc1ccccc1)c1cccc(NC(=O)CCCCl)c1
[D] COC(=O)[C@@H](NC(=O)OCc1ccccc1)c1cccc(NC(=O)Cn2nc(C)cc2C)c1
[E] O=C(Cn1cnc2ccccc21)Nc1cccc([C@H](NC(=O)OCc2ccccc2)C(=O)O)c1
Arrange these 5 compounds in increasing order of Activity. Response format: the labels, sorted as the prompt asks.
B, A, D, E, C

[a] COCC(=O)Nc1cccc([C@H](NC(=O)OCc2ccccc2)C(=O)OC)c1
[b] COC(=O)[C@@H](NC(=O)OCc1ccccc1)c1cccc(NC(=O)CCCl)c1
[c] COC(=O)[C@@H](NC(=O)OCc1ccccc1)c1cccc(NC(=O)Cn2nnnc2SC)c1
[d] COC(=O)[C@@H](NC(=O)OCc1ccccc1)c1cccc(NC(=O)CSc2nc3ccccc3[nH]2)c1
Place the items in sequence of falling Activity. List labels; respect the requested ordering.
c, d, b, a

[1] COC(=O)[C@@H](NC(=O)OCc1ccccc1)c1cccc(NC(C)=O)c1
[2] CCCCOC(=O)[C@@H](NC(=O)OCc1ccccc1)c1cccc(NC(=O)CCl)c1
Given the two records 1 and 2 , choose the one whose Activity value is lower. Kindly state the label of the option you pick.
2
